type: physicochemical; details: 1-octanol, 303.15 K
Assignment: determine reported mole fraction solubility (x) for the given compounds.
Give bare numbers, in x · 10^4.

Here is how some compounds turned out for mole fraction solubility (x).
CN1CCc2c(c3cc(Cl)ccc3n2CCc2n[nH]c(=S)n2C)C1 [V] yielded mole fraction solubility (x) of 1.91

Cc1ccc2c(c1)c1c(n2CCc2n[nH]c(=S)n2C)CCN(C)C1 [Compound II] yielded mole fraction solubility (x) of 1.39

CN1CCc2c(c3ccccc3n2CCc2n[nH]c(=S)n2C)C1 [Compound I] yielded mole fraction solubility (x) of 3.48

COc1ccc2c(c1)c1c(n2CCc2n[nH]c(=S)n2C)CCN(C)C1 [III] yielded mole fraction solubility (x) of 1.22

Continuing:
CN1CCc2c(c3cc(F)ccc3n2CCc2n[nH]c(=S)n2C)C1 [Compound IV] yielded mole fraction solubility (x) of 3.68

###

Assignment: determine reported ΔSsol0, standard molar dissolution entropy for the given compounds.
type: physicochemical; conditions: Buffer pH 7.4, 298.15 K

Cc1ccc2c(c1)c1c(n2CCc2n[nH]c(=S)n2C)CCN(C)C1 [Compound II] yielded ΔSsol0, standard molar dissolution entropy of -24.2 J/mol⋅K

CN1CCc2c(c3cc(Cl)ccc3n2CCc2n[nH]c(=S)n2C)C1 [V] yielded ΔSsol0, standard molar dissolution entropy of 2.9 J/mol⋅K

CN1CCc2c(c3ccccc3n2CCc2n[nH]c(=S)n2C)C1 [Compound I] yielded ΔSsol0, standard molar dissolution entropy of -63.73 J/mol⋅K

Continuing:
CN1CCc2c(c3cc(F)ccc3n2CCc2n[nH]c(=S)n2C)C1 [Compound IV] yielded ΔSsol0, standard molar dissolution entropy of -24.6 J/mol⋅K

###

format: physicochemical; details: Hexane, 293.15 K
Assignment: determine reported mole fraction solubility (x) for the given compounds.
Numbers only, in x · 10^5.

`COc1ccc2c(c1)c1c(n2CCc2n[nH]c(=S)n2C)CCN(C)C1` yielded mole fraction solubility (x) of 3.30

Continuing:
`Cc1ccc2c(c1)c1c(n2CCc2n[nH]c(=S)n2C)CCN(C)C1` yielded mole fraction solubility (x) of 1.42

###

Assignment: determine reported mole fraction solubility (x) for the given compounds.
type: physicochemical; conditions: Hexane, 303.15 K

Here is how some compounds turned out for mole fraction solubility (x).
`CN1CCc2c(c3cc(F)ccc3n2CCc2n[nH]c(=S)n2C)C1` yielded mole fraction solubility (x) of 5.11 x · 10^4

`CN1CCc2c(c3ccccc3n2CCc2n[nH]c(=S)n2C)C1` yielded mole fraction solubility (x) of 11.41 x · 10^6

API: the following record is the query input.
`CN1CCc2c(c3cc(Cl)ccc3n2CCc2n[nH]c(=S)n2C)C1` yielded mole fraction solubility (x) of 7.47 x · 10^4

###

assay type: physicochemical; conditions: Hexane, 308.15 K
Assignment: determine reported mole fraction solubility (x) for the given compounds.
One number for each entry, in x · 10^4.

CN1CCc2c(c3cc(F)ccc3n2CCc2n[nH]c(=S)n2C)C1 [Compound IV] yielded mole fraction solubility (x) of 5.96

API: the following record is the query input.
CN1CCc2c(c3cc(Cl)ccc3n2CCc2n[nH]c(=S)n2C)C1 [V] yielded mole fraction solubility (x) of 8.87

###

format: physicochemical; conditions: Hexane, 313.15 K
Assignment: determine reported mole fraction solubility (x) for the given compounds.
One number for each entry, in x · 10^4.

`CN1CCc2c(c3cc(Cl)ccc3n2CCc2n[nH]c(=S)n2C)C1` yielded mole fraction solubility (x) of 10.22

API: the following record is the query input.
`CN1CCc2c(c3cc(F)ccc3n2CCc2n[nH]c(=S)n2C)C1` yielded mole fraction solubility (x) of 6.81

###

Assignment: determine reported mole fraction solubility (x) for the given molecules.
format: physicochemical; details: Hexane, 298.15 K

Here is how some molecules turned out for mole fraction solubility (x).
CN1CCc2c(c3ccccc3n2CCc2n[nH]c(=S)n2C)C1 [Compound I] yielded mole fraction solubility (x) of 9.41 x · 10^6

COc1ccc2c(c1)c1c(n2CCc2n[nH]c(=S)n2C)CCN(C)C1 [III] yielded mole fraction solubility (x) of 3.71 x · 10^5

API: the following record is the query input.
Cc1ccc2c(c1)c1c(n2CCc2n[nH]c(=S)n2C)CCN(C)C1 [Compound II] yielded mole fraction solubility (x) of 1.70 x · 10^5
